log10 of IC50 reference
Tested on: 3D7-strain P. falciparum asexual parasites
ASSAY EXPLANATION: P. falciparum asexual growth inhibition assay (Pf GIA)
Assay type: cell-based, Plasmodium falciparum
MEASUREMENT CONDITIONS: dose response confirmation; read-out: Pf asexual growth inhibition assays IC50
// stored as log10 of IC50 expressed in nM

Some solved entries appear below for comparison.
>>> quantitative_result("Cc1[nH]c(C)c(-c2ccc(-c3cccc(C(F)(F)F)c3)nc2)c(=O)c1Br")
1.65
>>> quantitative_result("Cc1[nH]c(C)c(-c2ccc(CCc3cccc(C(F)(F)F)c3)nc2)c(=O)c1Cl")
1.97
>>> quantitative_result("Cc1ccc(C)c(CC(=O)N2CCC(n3c(C)nc4ccc(F)cc43)CC2)c1")
2.40
>>> quantitative_result("CCCCCCCc1ccc(-c2c(C)[nH]c(C)c(Cl)c2=O)cn1")
2.55
>>> quantitative_result("CCc1cc2c3c(N)nc(N)nc3ccc2n1C(C)(C)C")
0.51

Qu. Please give measured log10 of IC50 of the following entry: `CCCN1CCN(CCNc2c3ccccc3nc3ccccc23)CC1`
Ans. 2.98

Qu. Please give measured log10 of IC50 of the following entry: NCC(NC(=O)c1ccc(-c2c[nH]c3ncccc23)s1)c1ccccc1.O=CO (centres unmarked)
Ans. 2.75

Qu. Please give measured log10 of IC50 of the following entry: `CCN1CCN(CCCNc2c3ccccc3nc3ccccc23)CC1.Cl`
Ans. 2.79

Qu. Please give measured log10 of IC50 of the following entry: `COc1c(F)ccc2ncc(Cl)c(CCN3CCC(NCc4ccc5c(n4)NC(=O)CS5)CC3)c12.Cl`
Ans. 3.08

Qu. Please give measured log10 of IC50 of the following entry: `Cc1cc(SC(C)(C)C)cc2c(Cl)c(C(N)=O)cnc12`
Ans. 1.84

###

Test system: HepG2 cells
ASSAY EXPLANATION: HepG2 cytotoxicity assay
MEASUREMENT CONDITIONS: read-out: HepG2 cytotoxicity assay IC50; dose response confirmation
IC50 reference
Response body: numeric value in µM, unit text excluded.

Some solved entries appear below for comparison.
>>> quantitative_result("Cc1nc(C)c(-c2ccc(Oc3cc(Cl)cc(Cl)c3)cc2)c(O)c1Br")
19.9
>>> quantitative_result("COc1ccc2ncc(Cl)c(CCN3CCC(NCc4ccc5c(n4)NC(=O)CO5)CC3)c2c1.Cl")
1.29
>>> quantitative_result("Cl.Nc1nc(N)c2c(ccc3nn(S(=O)(=O)N4CCCC4)cc32)n1")
0.12
>>> quantitative_result("COc1cc(OC)nc(C(Sc2ccc(NC(=O)c3cccs3)cc2)c2ccccc2)n1 (stereo not drawn)")
100
>>> quantitative_result("O=C(c1cc(-c2cccs2)[nH]n1)N1CCN(S(=O)(=O)c2ccc(Cl)cc2)CC1")
42.2

Qu. Please give measured IC50 of the following entry: `O=C(NC(=O)c1ccccc1O)c1ccccc1O`
Ans. 100

Qu. Please give measured IC50 of the following entry: `Cc1[nH]c(C)c(-c2ccc(C(=O)c3ccc(Cl)cc3)cc2)c(=O)c1Cl`
Ans. 100

Qu. Please give measured IC50 of the following entry: Br.CC(CCON1C(N)=NC(N)=NC1(C)C)c1ccc(Cl)cc1 (stereo not drawn)
Ans. 0.001

Qu. Please give measured IC50 of the following entry: `Nc1nc(N)c2c(ccc3c2ccn3Cc2ccccc2)n1`
Ans. 0.15

###

Tested on: P. berghei ookinete development
MEASUREMENT CONDITIONS: primary screen at 1 μM, replicate B
READOUT NAME: % inhibition, Replicate B (%)
Response body: numeric value in %, unit text excluded.

>>> quantitative_result("CCCCCCCc1ccc(-c2c(C)[nH]c(C)c(Cl)c2=O)cn1 [TCMDC-135816]")
81.98
>>> quantitative_result("COc1cccc(CC(=O)N2CCC(n3c(C)nc4ccc(F)cc43)CC2)c1 [TCMDC-124792]")
82.85
>>> quantitative_result("CNCCN(C)C(=O)Oc1c(Cl)c(C)nc(C)c1-c1ccc(Oc2ccc(OC(F)(F)F)cc2)cc1.Cl [TCMDC-137384]")
56.87
>>> quantitative_result("Cc1cc(C2NC(=O)c3ccccc3N2)c(C)n1-c1ccc2c(c1)OCO2 (stereo not drawn) [TCMDC-125051]")
98.84
>>> quantitative_result("Cc1[nH]c(C)c(-c2ccc(-c3cccc(Cl)c3)nc2)c(=O)c1Cl [TCMDC-136300]")
81.67

Below: the item to evaluate.
Qu. Please give measured % inhibition, Replicate B of the following entry: CC(C)N1CCN(CCCNc2c3ccccc3nc3ccccc23)CC1.Cl [TCMDC-137547]
Ans. 62.42

###

System: P. falciparum late stage (stages IV-V) gametocytes
ASSAY EXPLANATION: P. falciparum late stage gametocyte ATP depletion assay (Pf GC-ATP)
MEASUREMENT CONDITIONS: 1: YES; 0: NO
READOUT NAME: Is compound selective in assay? Pf GC-ATP active?

>>> result("COc1ccc(CCNc2nc(NCc3ccccc3)c3cc(OC)c(OC)cc3n2)cc1OC [TCMDC-132017]")
"0 (0: NO)"
>>> result("Cc1cc(Nc2ccncc2)n2nc(C)c(-c3ccccc3Cl)c2n1 [TCMDC-124918]")
"1 (1: YES)"
>>> result("C[C@H](Cc1ccc(Oc2ccc(C[C@@H](C)NC[C@H](O)c3cccc(Cl)c3)cc2)cc1)NC[C@H](O)c1cccc(Cl)c1.Cl [TCMDC-131560]")
"0 (0: NO)"
>>> result("CCCCOc1ccc(CNCCCCCCNCc2ccc(OCCCC)c3ccccc23)c2ccccc12.CS(=O)(=O)O [TCMDC-137281]")
"0 (0: NO)"
>>> result("COc1cc2nc(NCc3cccc(CNC(=O)c4ccc(-c5ccc(C(C)=O)cc5)cc4)c3)nc(N)c2cc1OC.O=C(O)C(F)(F)F [TCMDC-138177]")
"0 (0: NO)"
>>> result("CN1CCN(CCCNCc2cccc(-c3ccc(CNCCc4ccccc4)cc3)c2)CC1 [TCMDC-140643]")
"1 (1: YES)"

Qu. Please give measured Is compound selective in assay? Pf GC-ATP active? of the following entry: COc1cccc(-c2csc(C(=O)NCC3CCN(Cc4ccc(C(C)(C)C)cc4)C3)c2)c1.O=C(O)C(F)(F)F (stereo not shown) [TCMDC-134447]
Ans. 1 (1: YES)

###

Test system: HepG2 cells
ASSAY EXPLANATION: HepG2 cytotoxicity assay
MEASUREMENT CONDITIONS: HepG2 cytotoxicity unified across screens; >25 set to 25.00
Everything with Unified cytotox lower than 8 µM is N; everything else, including exactly 8 µM, is Y.

>>> label_value("N=C(N)Nc1nc(-c2ccc(NC(=O)Nc3cccc(-c4csc(NC(=N)N)n4)c3)cc2)cs1")
"Y"

Qu. Exam item: decide whether the reported Unified cytotox for `CN(C)CCCn1c(N)c(-c2nc3ccccc3[nH]2)c2nc(C#N)c(C#N)nc21` is at least 8 µM.
Ans. N

Qu. Exam item: decide whether the reported Unified cytotox for `CC(C)CNCc1cccc(-c2cccc(CN(CCCN3CCN(C)CC3)C(=O)NC3CCCCC3)c2)c1.O=C(O)C(F)(F)F` is at least 8 µM.
Ans. Y

Qu. Exam item: decide whether the reported Unified cytotox for `Fc1ccc2[nH]c(-c3cccc(-c4cccc(CNCCN5CCNCC5)c4)c3)nc2c1.O=C(O)C(F)(F)F` is at least 8 µM.
Ans. Y

Qu. Exam item: decide whether the reported Unified cytotox for `CN1CCN(CC2(Nc3nccc(NCCc4cn(C)c5ccccc45)n3)CCCCC2)CC1` is at least 8 µM.
Ans. N

Qu. Exam item: decide whether the reported Unified cytotox for `CCCCCOc1ccc(C(=NC)N(CCCCC)CCCCC)c2ccccc12.I` is at least 8 µM.
Ans. N

Qu. Exam item: decide whether the reported Unified cytotox for `CC(C)CC(=O)N(Cc1ccc(-c2ccc(CNC3Cc4ccccc4C3)cc2)cc1)C1CCNCC1.O=C(O)C(F)(F)F` is at least 8 µM.
Ans. N

Qu. Exam item: decide whether the reported Unified cytotox for `COc1cccc(CCc2c(CCNCCCCCCNCCc3ccccc3)ccc(OC)c2OC)c1.Cl` is at least 8 µM.
Ans. N

###

Tested on: P. berghei ookinete development
MEASUREMENT CONDITIONS: read-out: Pb ODA IC50; this manuscript
Each entry belongs to exactly one class, chosen by where its IC50 falls: interval 1 = under 0.5 µM, interval 2 = from 0.5 µM up to 2 µM, interval 3 = 2 µM and over

For orientation, consider the following solved cases.
>>> label_value("CCOC(=O)c1c(CN2CCCC2)n(-c2ccccc2)c2cc(Br)c(O)cc12")
"interval 3"
>>> label_value("COc1ccc(-c2cnc(N)c(-c3ccc(C(N)=O)cc3)c2)cc1OC")
"interval 1"
>>> label_value("CCCCCCCCc1c(C)[nH]c(C)c(Cl)c1=O")
"interval 1"
>>> label_value("CCc1cc2c3c(N)nc(N)nc3ccc2n1C(C)(C)C")
"interval 2"

Qu. Which bin, given its IC50, does CN1c2ccc([N+](=O)[O-])cc2C(C)(C)C12C=Cc1cc(Br)cc([N+](=O)[O-])c1O2 (stereo not shown) occupy?
Ans. interval 2
